- Assayed target: Estrogen receptor (Homo sapiens)
- Sequence (whole entry): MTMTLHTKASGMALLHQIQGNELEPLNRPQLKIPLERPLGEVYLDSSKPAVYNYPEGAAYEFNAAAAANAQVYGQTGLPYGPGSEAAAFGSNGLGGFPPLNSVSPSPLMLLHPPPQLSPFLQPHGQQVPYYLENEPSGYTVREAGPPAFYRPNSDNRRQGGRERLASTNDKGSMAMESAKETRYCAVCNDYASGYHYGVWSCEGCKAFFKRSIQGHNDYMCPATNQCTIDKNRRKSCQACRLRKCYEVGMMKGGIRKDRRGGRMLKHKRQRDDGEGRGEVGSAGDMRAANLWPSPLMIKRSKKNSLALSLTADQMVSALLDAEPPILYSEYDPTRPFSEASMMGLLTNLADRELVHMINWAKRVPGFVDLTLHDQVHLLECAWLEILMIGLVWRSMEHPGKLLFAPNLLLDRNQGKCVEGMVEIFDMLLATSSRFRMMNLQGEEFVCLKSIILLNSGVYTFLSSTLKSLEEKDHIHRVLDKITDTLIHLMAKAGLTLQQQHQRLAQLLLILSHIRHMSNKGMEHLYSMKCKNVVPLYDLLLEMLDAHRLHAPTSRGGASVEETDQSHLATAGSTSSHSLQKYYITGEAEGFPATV
- Protocol details: Displacement of [3H]estradiol from purified full length human ERalpha receptor relative to estradiol
Measurement type: RBA (%)

These solved cases illustrate the format of a correct answer.
Molecular string: Cc1c(-c2ccc(O)cc2)ccc(/C=N/O)c1O
Measurement type: RBA
Unit string: %
Recorded value: 0.249
//
Molecular string: COc1ccc(-c2ccc(/C=N/O)c(O)c2C)cc1
Measurement type: RBA
Unit string: %
Recorded value: 0.005
//
Molecular string: N#Cc1c(-c2ccc(O)cc2)ccc(/C=N/O)c1O
Measurement type: RBA
Unit string: %
Recorded value: 0.004

1. COc1ccc(-c2ccc(/C=N/O)c(O)c2)cc1
2. O/N=C/c1ccc(-c2ccc(O)cc2)cc1O
Query :: So which one has the bigger RBA here, 1 or 2 ? Identify your selection by its label.
Result :: 1

Recorded values, source ChEMBL document CHEMBL1143167.
